Reported TGI values follow for various compounds
# System: NCI-H23 lung
# assay_info: NCI tumour cell line growth inhibition, 48 h
measure: TGI

>>> print(df.to_string())
                                    compound  observed_value
 0  O=C(CC(=O)Nc1ccc(Cl)cc1)NNCC(=O)Nc1nc(-c2ccccc2)cs1        > 100 µM
 1             CC(=O)Nc1c(C)cc(OCC(=O)O)cc1C        > 100 µM
 2            COc1ccccc1NC(=O)C(C#N)=C(SC)SC        > 100 µM
 3  O=C1C(NCCc2cc(Br)c(O)c(Br)c2)=CC(=O)c2ncccc21         2.98 µM
 4  COC(=O)n1c(=O)nc2c3c(ncn21)Oc1c(c(-c2ccccc2)nn1-c1ccccc1)C3c1ccc(Cl)cc1 (stereo unspecified)         3.96 µM
 5       N#Cc1cnn2c1n[n+]([O-])c1ccc(Cl)cc12         12.2 µM
 6  CC1=NC(=Cc2ccc(Cl)cc2)C(=O)N1n1c(-c2ccccc2)nc2ccccc2c1=O           96 µM
 7  O=c1cc(-c2ccc(O)c(O)c2)oc2cc(OC3OC(CO)C(O)C(O)C3O)cc(O)c12 (stereo unspecified)        > 100 µM
 8                COc1ccc2c(OC)c3ccoc3nc2c1O        > 100 µM
 9  Cc1cc2c(C(C)C)c(O)c(O)c3coc(/c1=c1/c(C)cc4c(C(C)C)c(=O)c(=O)c5coc1c45)c32          9.2 µM
10  CN(C)c1ccc(C(C#N)N2CCCN(C(C#N)c3ccc(N(C)C)cc3)C2c2ccc(N(C)C)cc2)cc1 (stereo unspecified)        > 100 µM
11  CC(=NNC(=S)Nc1ccccc1C)c1cccc(C(C)=NNC(=S)Nc2ccccc2C)n1        > 100 µM
12  CC(=O)Nc1ccc(-c2nnc(SCC(=O)Nc3ccccc3Cl)o2)cc1        > 100 µM
13  Cc1[nH]c2ncn(/N=C/c3ccccc3)c(=N)c2c1Cc1ccccc1        > 100 µM
14  O=c1nc2n(CCO)c(-c3ccccc3)c(-c3ccccc3)nc-2c(=O)[nH]1        > 100 µM
15  COc1ccc(/C=C2/C(=O)N(C(=O)c3ccc(Cl)cc3)N=C2C)cc1OC        > 100 µM
16         N[C@@H]1C[C@H](N)c2c(Cl)sc(Cl)c21        > 100 µM
17  CCOC(=O)[C@H]1C[C@@H](C(=O)c2ccccc2)N2N=C(c3ccc(Br)cc3)C=C[C@H]12        > 100 µM
18  CC1CN=C(NCc2ccccc2)S1 (stereo unspecified)        > 100 µM
19  O=C(/C=C/c1ccc(O)c(O)c1)NC(CO)C(=O)O (stereo unspecified)        > 100 µM
20  O=c1cc/c(=N\Nc2ccccc2)c(=O)/c1=N/Nc1ccccc1         > 50 µM
